Recorded measurements of inhibition, one per entry
# measured_target: Histone deacetylase 1 (Homo sapiens)
# Sequence (Q13547 whole entry): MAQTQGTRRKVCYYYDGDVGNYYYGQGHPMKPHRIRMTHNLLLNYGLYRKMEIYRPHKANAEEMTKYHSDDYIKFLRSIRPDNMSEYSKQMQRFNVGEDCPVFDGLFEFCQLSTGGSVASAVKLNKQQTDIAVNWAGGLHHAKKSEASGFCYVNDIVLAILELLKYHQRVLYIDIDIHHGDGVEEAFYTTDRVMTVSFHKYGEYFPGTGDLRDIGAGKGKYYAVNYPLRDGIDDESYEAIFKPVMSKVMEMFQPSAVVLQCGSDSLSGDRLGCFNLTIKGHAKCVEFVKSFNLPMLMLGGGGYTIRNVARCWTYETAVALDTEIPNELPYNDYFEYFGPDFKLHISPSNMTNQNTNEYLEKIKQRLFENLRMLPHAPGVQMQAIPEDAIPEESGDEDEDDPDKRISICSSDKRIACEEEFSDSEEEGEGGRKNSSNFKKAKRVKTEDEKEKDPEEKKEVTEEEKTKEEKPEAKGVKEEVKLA
# experimental_setup: Sf9, dose 100.0 nM, time 75.0 min

Some solved cases for reference:
COc1cc2c(Oc3ccc(NC(=O)c4nn(-c5ccc(C)cc5C)cc(C)c4=O)cc3)ccnc2cc1OCCCCCCC(=O)NO; 65.3%
COc1cc2c(Oc3ccc(NC(=O)c4nn(-c5ccccc5C)cc(C)c4=O)cc3F)ccnc2cc1OCCCC(=O)NO; 8%
COc1cc2c(Oc3ccc(NC(=O)c4nn(-c5ccccc5C)cc(C)c4=O)cc3)ccnc2cc1OCCCC(=O)NO; 10.7%
COc1cc2c(Oc3ccc(NC(=O)c4nn(-c5ccccc5F)cc(C)c4=O)cc3F)ccnc2cc1OCCCC(=O)NO; 7.1%
COc1cc2c(Oc3ccc(NC(=O)c4nn(-c5ccccc5)ccc4=O)cc3)ccnc2cc1OCCCC(=O)NO; 12.6%

Shifting focus to the compound that follows.
Entry "COc1cc2c(Oc3ccc(NC(=O)c4nn(-c5cccc(C)c5)cc(C)c4=O)cc3)ccnc2cc1OCCCCCCC(=O)NO" — recorded inhibition = 62%
